Assay: qHTS profiling of the MIPE4 collection as inhibitors of Plasmodium falciparum (DD2) proliferation (Rep 2) (AID 743346)
Settings: P. falciparum Dd2 in erythrocytes, SYBR Green DNA, 72 h; at 28.5 µM unless noted
Procedure: Plasmodium falciparum is a virulent malarial parasite that kills 1-2 million people worldwide each year. […] Because mature erythrocytes lack DNA, only Plasmodium-derived DNA is detected. The SYBR Green viability assay was adapted from a method described previously (Plouffe et al., 2008). […] The following morning, fluorescence intensity at 485(14) nm excitation and 535(25) nm emission wavelengths was measured on an EnVision (Perkin Elmer) plate reader. […]
METRIC: parasite growth, % of control (lower = inhibition) (%)
Number only, in %; omit the unit.

Past entries and their recorded results:
Which parasite growth, % of control (lower = inhibition) reading was recorded for the compound CCOc1ccccc1OCCNC(C)Cc1ccc(OC)c(S(N)(=O)=O)c1 (stereo not given) ? 54.9

Which parasite growth, % of control (lower = inhibition) reading was recorded for the compound "COC(=O)Nc1ccc(-c2nc(N3CCOCC3)c3cnn(C4CCN(Cc5cccnc5)CC4)c3n2)cc1" ? 9.27

Which parasite growth, % of control (lower = inhibition) reading was recorded for the compound "COc1cc(C(=O)N2CCC(N3CCN(C)CC3)CC2)ccc1Nc1ncc2c(n1)N(C)c1ccccc1C(=O)N2C" ? 19.7

Let us examine a further case.
Which parasite growth, % of control (lower = inhibition) reading was recorded for the compound "c1ccc2c(CCNc3ccc(Nc4ccncc4)cc3)c[nH]c2c1" ? 6.39

Numbers sourced from PubChem BioAssay (NCATS).
